molecular target: T1, HIF-2α (construct not given) (UniProt Q99814 1-360, limits assumed); assay: HIF-2 ELISA, inhibition of HIF-2α/HIF-1β dimerisation
T1 construct: also called HIF-2 ELISA
T1 sequence (Q99814 1-360 limits assumed): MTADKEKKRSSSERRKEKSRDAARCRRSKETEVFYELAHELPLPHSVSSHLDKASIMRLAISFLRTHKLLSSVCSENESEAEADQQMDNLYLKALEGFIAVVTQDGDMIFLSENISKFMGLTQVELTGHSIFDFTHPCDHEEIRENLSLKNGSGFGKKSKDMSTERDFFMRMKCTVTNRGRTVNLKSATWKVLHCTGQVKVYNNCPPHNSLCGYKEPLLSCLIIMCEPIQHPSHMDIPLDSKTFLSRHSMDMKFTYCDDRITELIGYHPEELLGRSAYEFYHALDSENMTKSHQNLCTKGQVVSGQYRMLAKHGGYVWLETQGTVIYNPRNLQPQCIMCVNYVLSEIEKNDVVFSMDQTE
Starred links: 1 amine or outer side, 2 acyl side, 3 side chain; linkers in the order of their positions; H or OH if unused. Non-standard residues stand in square brackets, D forms with d. Tyr(Me) = 4-methoxyphenylalanine (O-methyl-tyrosine), COc1ccc(C[C@H](N[*:1])C(=O)[*:2])cc1; Tyr(3-NO2) = N[C@@H](Cc1ccc(O)c([N+](=O)[O-])c1)C(=O)O; Pal = not defined here
Measured pIC50 values are reported for all entries that follow.
The meaning of pIC50 here: minus log10 of the concentration in molar units.

| binder | pIC50 |
| --- | --- |
| cyclo(CRLLI[Pal]) (not fully specified; printed as CRLLI(Pal); reading uncertain, also called CRLLIX where X = Pal) [CRLLI(Pal)] | 3.67 |
| cyclo(CRLLI[Tyr(3-NO2)]) (SMILES CC[C@H](C)[C@@H]1NC(=O)[C@H](CC(C)C)NC(=O)[C@H](CC(C)C)NC(=O)[C@H](CCCNC(=N)N)NC(=O)[C@H](CS)NC(=O)[C@H](Cc2ccc(O)c([N+](=O)[O-])c2)NC1=O, also called CRLLIX where X = 3-NO2-Y) [CRLLI(3-NO2-Y)] | 4.64 |

Pending binder:
query: Hello, please tell me recorded pIC50 for this one: cyclo(CRLLI[Tyr(Me)]) (SMILES CC[C@H](C)[C@@H]1NC(=O)[C@H](CC(C)C)NC(=O)[C@H](CC(C)C)NC(=O)[C@H](CCCNC(=N)N)NC(=O)[C@H](CS)NC(=O)[C@H](Cc2ccc(OC)cc2)NC1=O, also called CRLLIX where X = 4-MeO-F) [CRLLI(4-MeO-F)]
result: 4.81
